- assayExplanation: yeast display, Sf9 membrane polyspecificity reagent, FACS + sequencing; frameworks hold sequencing errors
assayMetric: polyreactivity (PSR sort gate)

Known polyreactivity (PSR sort gate) results, listed for orientation:
chain=QVQLVESGGGLVQAGGSLRLSCAASGRTFRYNAMVWFRQAPGKERELVAAISSGDRTNYADSVKGRFTISRDNAKNTVYLQMNSLKPEDTAVYYCAAPTDSYYEFDYWGQGTQVTVSS assaymetric="polyreactivity (PSR sort gate)" measuredvalue="low polyreactivity"
chain=QVQLQESGGGLVQAGGSQRLSCAASGNISVTGFMGCYRQAPGKERELVASIGIGGTTYYADSVKGRFSISRDNEKNTVYLQMNSLKPEDTAVYYCAARYLYYAYSYWGQGTQVTVSS assaymetric="polyreactivity (PSR sort gate)" measuredvalue="low polyreactivity"
chain=QVQLVESGGGLVQAGGSLRLSCAASGFILGRYAMGWYRQAPGKERELVAAISIGGRTNYADSVKGRFTISRDNAKITVYFQMNSLKPEDTAVYYCATSFAVLLSQVDYWGQGTQVTVSS assaymetric="polyreactivity (PSR sort gate)" measuredvalue="low polyreactivity"
chain=QVQLVESGGGLVQAGGSLRLSCAASGGTFRVYAMGWYRQAPGKERELVAAITGRGGSTYYADSVKGRFTISLDNAKNTVDLQMNSLKPEDTAVYYCAKDPVTTYYKYDYWGQGTQVTVSS assaymetric="polyreactivity (PSR sort gate)" measuredvalue="low polyreactivity"
chain=QVQLVESGGGLVQAGGSLRLSCAASGSTFSYNAMGWYRQAPGKERELVAAISRRGGGTYYADSVKGRFTISRDKAKNTVSLHMNSLKPVDTAVYYCNADIWYKTYDYWGQGTQVTVSS assaymetric="polyreactivity (PSR sort gate)" measuredvalue="low polyreactivity"
chain=QVQLVESGGGLVQAGGSLRLSCAASGSIFLVYAMGWYRQAPGKERELVAAISSDGDDTYYADSVKGRFTISRDNAKNTVYLQMNSLKPEDTAVYYCAAESYTYYADYGYGYWGQGTQVTVSS assaymetric="polyreactivity (PSR sort gate)" measuredvalue="high polyreactivity"
chain=QVQLVESGGGLVQAGGSLRLSCAASGRIVNFYAMGWYRQAPGKEREFVAAISWSGGSTSYADSVKGRFTISRDTAKKTDYLQMNSLKPEDTAVSYCAVRWSSRSRRYNYWGQGTQVTVSS assaymetric="polyreactivity (PSR sort gate)" measuredvalue="high polyreactivity"
chain=QVQLVDSGGGKVQAGGSLRLSCAASGRTFLVYAMGWYRQAPGKERELVAAISRSGGRTSYADSVKGRFTISRDNAKNTVYLQMNSLKPEDTAVYYCAASGPPCDMDYWGQGTQVTVSS assaymetric="polyreactivity (PSR sort gate)" measuredvalue="high polyreactivity"

Query: polyreactivity (PSR sort gate); subject: QVQLVESGGGLVQAGGSLRLSCAASGRTFLGNAMGWYRQAPGKERELVAAIRYSGGRTYYADSVKGRFTISRDNAKNTVYLQMNSLKPEDTAVYYCAKDRRYYKAYDYWGQGTQVTVSS
low polyreactivity

Query: polyreactivity (PSR sort gate); subject: HVQHVDSGGGLVQAGGSLRLSFAAYGRIFVNNAMGWYRQATGKERELVAAISQNGGRTYYADSVKGRFTISRDNAKNTVYLQMNSLKPEDTAVYYCAAGQARAGLIGGYWGQGTQVTVSS
high polyreactivity

Query: polyreactivity (PSR sort gate); subject: QVQLVESGGGLVQAGGSLRLSCAGSGFIFHLYAMGWYRPAPGKERELVAAIRISDGSTYYADSVKGRFTISRDNAKNTVYLLMNSLKPEDTAVYYCNRVRSSYVYVSRFDYWGQGTQVTVSS
high polyreactivity

These entries and their values trace back to the nanobody polyreactivity screen of Harvey et al. (2022).
